Target: Metabotropic glutamate receptor 5 (Homo sapiens, UniProt P41594)
Sequence (P41594 21-1212 limits assumed): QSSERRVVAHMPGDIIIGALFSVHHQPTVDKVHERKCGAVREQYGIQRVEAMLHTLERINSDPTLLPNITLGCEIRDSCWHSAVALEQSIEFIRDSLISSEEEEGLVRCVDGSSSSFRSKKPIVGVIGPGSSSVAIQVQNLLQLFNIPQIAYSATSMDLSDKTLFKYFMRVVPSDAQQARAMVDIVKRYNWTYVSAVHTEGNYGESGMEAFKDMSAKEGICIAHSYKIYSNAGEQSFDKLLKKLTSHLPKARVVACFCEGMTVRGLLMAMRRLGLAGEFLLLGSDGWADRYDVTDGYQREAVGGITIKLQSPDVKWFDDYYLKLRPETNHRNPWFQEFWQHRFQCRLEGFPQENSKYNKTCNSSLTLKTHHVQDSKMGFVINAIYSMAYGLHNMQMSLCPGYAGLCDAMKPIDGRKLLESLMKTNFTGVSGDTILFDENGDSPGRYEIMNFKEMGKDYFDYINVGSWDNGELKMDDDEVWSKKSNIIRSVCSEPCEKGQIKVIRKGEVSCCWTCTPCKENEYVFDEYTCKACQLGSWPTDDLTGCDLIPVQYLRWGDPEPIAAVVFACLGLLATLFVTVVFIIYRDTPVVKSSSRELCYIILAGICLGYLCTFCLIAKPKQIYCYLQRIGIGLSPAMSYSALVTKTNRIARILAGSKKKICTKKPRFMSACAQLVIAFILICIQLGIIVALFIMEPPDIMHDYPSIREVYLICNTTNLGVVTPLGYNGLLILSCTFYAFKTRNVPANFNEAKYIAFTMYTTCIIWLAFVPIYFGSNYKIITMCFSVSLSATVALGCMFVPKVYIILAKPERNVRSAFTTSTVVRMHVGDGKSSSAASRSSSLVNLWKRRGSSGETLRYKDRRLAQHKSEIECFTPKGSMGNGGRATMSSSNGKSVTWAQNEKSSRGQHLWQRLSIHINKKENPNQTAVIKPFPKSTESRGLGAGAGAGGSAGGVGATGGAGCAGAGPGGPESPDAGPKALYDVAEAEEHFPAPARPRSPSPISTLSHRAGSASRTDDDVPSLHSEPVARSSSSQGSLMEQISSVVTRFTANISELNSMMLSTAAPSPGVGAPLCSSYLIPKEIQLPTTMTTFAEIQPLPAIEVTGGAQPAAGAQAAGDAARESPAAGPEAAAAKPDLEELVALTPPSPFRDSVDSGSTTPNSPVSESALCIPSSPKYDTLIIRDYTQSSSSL
Assay: Displacement of [3H]M-MPEP from mGluR5 (unknown origin) at 1 uM measured after 60 mins relative to control
Quick reference: inhibition of the listed items.
Just the number in %, nothing appended.

Recorded inhibition, per entry:
CC1CCN(c2c(S(=O)(=O)c3ccc(Cl)c(Cl)c3)cnc3c(F)cccc23)CC1 :: 95
Cc1ccc(S(=O)(=O)c2cnc3cc(Cl)ccc3c2N2CCOCC2)cc1 :: 12
Cc1ccc(S(=O)(=O)c2cnc3ccccc3c2NCc2ccccc2)cc1 :: 73.5

Return inhibition (reported value) for this compound: Cc1ccc2ncc(S(=O)(=O)c3ccc(Cl)cc3)c(N3CCOCC3)c2c1
89

Return inhibition (reported value) for this compound: COc1ccc(S(=O)(=O)c2cnc3ccc(Cl)cc3c2N2CCOCC2)cc1OC
-2

----------
Quick reference: inhibition of the listed items.
Molecular target: Metabotropic glutamate receptor 5 (Homo sapiens, UniProt P41594)
Assay: Displacement of [3H]M-MPEP from mGluR5 (unknown origin) at 1 uM measured after 60 mins relative to control

NS(=O)(=O)N1CCN(c2c(S(=O)(=O)c3cc(F)cc(F)c3)cnc3cc(F)ccc23)CC1 :: 6.4%
N#Cc1ccc(S(=O)(=O)c2cnc3cc(Cl)ccc3c2N2CCOCC2)cc1 :: 2%
COCC1CCN(c2c(S(=O)(=O)c3cc(F)cc(F)c3)cnc3cc(F)ccc23)CC1 :: 83%
Cc1cc(C)cc(S(=O)(=O)c2cnc3cc(Cl)ccc3c2N2CCOCC2)c1 :: 24%
CC1CCN(c2c(S(=O)(=O)c3ccccc3)cnc3ccc(F)cc23)CC1 :: 40%

Return inhibition (reported value) for this compound: CC1CCN(c2c(S(=O)(=O)c3ccc(F)c(F)c3)cnc3c(F)cccc23)CC1
93%

Return inhibition (reported value) for this compound: O=S(=O)(c1ccccc1)c1cnc2cc(F)ccc2c1N1CCOCC1
4%

Return inhibition (reported value) for this compound: Cc1ccc2ncc(S(=O)(=O)c3cccc(C#N)c3)c(N3CCC(C)CC3)c2c1
52%

Return inhibition (reported value) for this compound: Cc1ccc(S(=O)(=O)c2cnc3cc(F)ccc3c2N2CCC(C)CC2)cc1C
90%

Return inhibition (reported value) for this compound: COc1cccc(S(=O)(=O)c2cnc3ccc(OC)cc3c2N2CCC(C)CC2)c1
0%

----------
Quick reference: inhibition of the listed items.
Biological target: Metabotropic glutamate receptor 5 (Homo sapiens)
Assay: Displacement of [3H]M-MPEP from mGluR5 (unknown origin) at 1 uM measured after 60 mins relative to control
Note: state the figure and append the unit.

O=S(=O)(c1cccc(F)c1)c1cnc2ccc(Cl)cc2c1N1CCOCC1 :: 0%
N#Cc1cccc(S(=O)(=O)c2cnc3ccc(F)cc3c2N2CCOCC2)c1 :: 25%
COc1ccc(S(=O)(=O)c2cnc3ccc(OC)cc3c2N2CCC(C)CC2)cc1 :: 41%

For the next question, use this compound.
Return inhibition (reported value) for this compound: COc1ccc(S(=O)(=O)c2cnc3cc(Cl)ccc3c2N2CCC(C)CC2)cc1
79%

----------
Target: Metabotropic glutamate receptor 5 (Homo sapiens, UniProt P41594)
Assay: Displacement of [3H]M-MPEP from mGluR5 (unknown origin) at 1 uM measured after 60 mins relative to control
Quick reference: inhibition of the listed items.
Just the number in %, nothing appended.

COc1ccc2ncc(S(=O)(=O)c3cc(C)cc(C)c3)c(N3CCC(C)CC3)c2c1 :: 79

Return inhibition (reported value) for this compound: COc1cccc(S(=O)(=O)c2cnc3ccc(C)cc3c2N2CCC(C)CC2)c1
96

Return inhibition (reported value) for this compound: Cc1ccc(S(=O)(=O)c2cnc3ccc(F)cc3c2N2CCOCC2)cc1Cl
69

Return inhibition (reported value) for this compound: O=S(=O)(c1cc(F)cc(F)c1)c1cnc2cc(Cl)ccc2c1N1CCOCC1
67

Return inhibition (reported value) for this compound: CC1CCN(c2c(S(=O)(=O)c3ccc(Cl)cc3)cnc3c(F)cccc23)CC1
85

Return inhibition (reported value) for this compound: CC1CCN(c2c(S(=O)(=O)c3ccc(F)c(F)c3)cnc3cc(Cl)ccc23)CC1
90

Return inhibition (reported value) for this compound: O=S(=O)(c1ccc(F)c(Cl)c1)c1cnc2ccc(Cl)cc2c1N1CCOCC1
39

Return inhibition (reported value) for this compound: Cc1ccc(S(=O)(=O)c2cnc3ccc(F)cc3c2N2CCC(C)CC2)cc1F
86

Return inhibition (reported value) for this compound: COc1cccc(S(=O)(=O)c2cnc3ccc(C)cc3c2N2CCOCC2)c1
65

Return inhibition (reported value) for this compound: COc1ccc2ncc(S(=O)(=O)c3ccc(C)c(F)c3)c(N3CCOCC3)c2c1
4

Return inhibition (reported value) for this compound: O=S(=O)(c1ccccc1)c1cnc2ccc(F)cc2c1N1CCOCC1
81

Return inhibition (reported value) for this compound: COc1ccc2ncc(S(=O)(=O)c3ccc(Cl)c(Cl)c3)c(N3CCOCC3)c2c1
29

Return inhibition (reported value) for this compound: COc1ccc2ncc(S(=O)(=O)c3ccc(Cl)c(Cl)c3)c(N3CCC(C)CC3)c2c1
87

Return inhibition (reported value) for this compound: CC1CCN(c2c(S(=O)(=O)c3ccccc3)cnc3c(F)cccc23)CC1
13

Return inhibition (reported value) for this compound: COc1ccc(S(=O)(=O)c2cnc3cc(F)ccc3c2N2CCC(C)CC2)cc1
90

Return inhibition (reported value) for this compound: COc1ccc(S(=O)(=O)c2cnc3ccc(F)cc3c2N2CCOCC2)cc1OC
-5

Return inhibition (reported value) for this compound: Cc1ccc2ncc(S(=O)(=O)c3ccccc3)c(N3CCOCC3)c2c1
86

Return inhibition (reported value) for this compound: CC1CCN(c2c(S(=O)(=O)c3ccc(F)cc3)cnc3ccc(Cl)cc23)CC1
89

Return inhibition (reported value) for this compound: COc1ccc(S(=O)(=O)c2cnc3c(F)cccc3c2N2CCC(C)CC2)cc1
67

Return inhibition (reported value) for this compound: CC1CCN(c2c(S(=O)(=O)c3ccc(Cl)c(Cl)c3)cnc3cc(F)ccc23)CC1
94

----------
Quick reference: concentration at 40 min of the listed items.
Experiment: Drug level in blood of rat at 10 mg/kg, ip at 40 mins post dose
Format: ADME, organism-based
Details: read-out: Drug uptake
Just the number in ng/mL, nothing appended.

N#Cc1cc(F)cc(S(=O)(=O)c2cnc3cc(Cl)ccc3c2N2CCC(CO)CC2)c1 :: 608
CC1CCN(c2c(S(=O)(=O)c3ccc(Cl)c(Cl)c3)cnc3ccc(F)cc23)CC1 :: 46
CC1CCN(c2c(S(=O)(=O)c3ccc(Cl)c(Cl)c3)cnc3ccc(Cl)cc23)CC1 :: 55

For the next question, use this compound.
Return concentration at 40 min (reported value) for this compound: O=S(=O)(c1cccc(Cl)c1)c1cnc2cc(Cl)ccc2c1N1CCC(CO)CC1
193

----------
Molecular target: Metabotropic glutamate receptor 5 (Homo sapiens)
Test: Displacement of [3H]M-MPEP from mGluR5 (unknown origin) at 1 uM measured after 60 mins relative to control
Label scheme for inhibition: LOW = under 70%, MEDIUM = from 70% up to 80%, HIGH = 80% and over

CC1CCN(c2c(S(=O)(=O)c3ccc(F)c(F)c3)cnc3cc(F)ccc23)CC1 :: HIGH
Cc1cc(C)cc(S(=O)(=O)c2cnc3ccc(F)cc3c2N2CCC(C)CC2)c1 :: HIGH
O=S(=O)(c1ccc(F)c(Cl)c1)c1cnc2ccc(F)cc2c1N1CCOCC1 :: LOW
CC1CCN(c2c(S(=O)(=O)c3ccc(Cl)c(Cl)c3)cnc3cc(Cl)ccc23)CC1 :: HIGH
CC1CCN(c2c(S(=O)(=O)c3cccc(F)c3)cnc3ccc(F)cc23)CC1 :: MEDIUM

Please report the category associated with O=S(=O)(c1ccccc1)c1cnc2ccccc2c1N1CCN(c2ccccc2)CC1 , nothing else.
LOW

----------
Biological target: UniProt P41594
Assay: Displacement of [3H]M-MPEP from mGluR5 (unknown origin) at 1 uM measured after 60 mins relative to control
Quick reference: inhibition of the listed items.
Note: state the figure and append the unit.

CC1CCN(c2c(S(=O)(=O)c3cc(Cl)cc(Cl)c3)cnc3cc(Cl)ccc23)CC1 :: 93%
Cc1ccc2ncc(S(=O)(=O)c3ccc(C)c(F)c3)c(N3CCC(C)CC3)c2c1 :: 91%
COc1ccc(S(=O)(=O)c2cnc3ccc(F)cc3c2N2CCOCC2)cc1 :: 18%
O=S(=O)(c1ccc(F)c(Cl)c1)c1cnc2cc(Cl)ccc2c1N1CCOCC1 :: 83%

For the next question, use this molecule.
Give inhibition; test system UniProt P41594; molecule O=S(=O)(c1cccc(Cl)c1)c1cnc2ccc(F)cc2c1N1CCOCC1
40%

----------
Quick reference: minimal effective dose of the listed items.
Test system: Rattus norvegicus
Test: Anxiolytic activity in ip dosed rat assessed as increase in water drinking time during punished period by Vogel punished drinking conflict test
Type: functional
Conditions: read-out: MED

Give minimal effective dose; test system Rattus norvegicus; compound CC1CCN(c2c(S(=O)(=O)c3ccc(Cl)c(Cl)c3)cnc3ccc(Cl)cc23)CC1
> 30 mg/kg

Give minimal effective dose; test system Rattus norvegicus; compound O=S(=O)(c1cccc(Cl)c1)c1cnc2cc(Cl)ccc2c1N1CCC(CO)CC1
10 mg/kg

Give minimal effective dose; test system Rattus norvegicus; compound N#Cc1cc(F)cc(S(=O)(=O)c2cnc3cc(Cl)ccc3c2N2CCC(CO)CC2)c1
> 10 mg/kg

Give minimal effective dose; test system Rattus norvegicus; compound CC1CCN(c2c(S(=O)(=O)c3ccc(Cl)c(Cl)c3)cnc3ccc(F)cc23)CC1
30 mg/kg
